- System: HT29 colon
- PROCEDURE_TEXT: NCI-60 one-dose screen, 48 h (100 = growth as untreated, 0 = no growth, -100 = all killed)
- MEASUREMENT_SETUP: 10 µM unless noted
The panel holds about 83,000 compounds, 20% with a hit somewhere; the sample as a whole holds those more often. Activity calls are given as the source filed them. The calls were made as follows: active = growth percent below 10; inactive = the rest.
The entries below come with measured growth values attached.
MEASURED_PROPERTY: growth

COMPOUND | RESULT
Cn1ccnc1C(=O)/C=C/C=C/c1ccc(C(=O)Nc2ccc(F)cc2)cc1 | 0.045% (active)
C=CCOc1cccc(/C=C2\SC(=S)N(C3CC(=O)N(c4ccc(Br)cc4)C3=O)C2=O)c1 (stereo not given) | 115% (inactive)
c1cc(-c2nc3ccc4[nH]ncc4c3c3c2CCCC3)[nH]n1 | 63.7% (inactive)
O=C(O)c1ccc(-n2cc(CNc3cccc(Cl)c3)c(-c3ccc(F)cc3)n2)cc1 | 111% (inactive)
NS(=O)(=O)c1ccc(-n2cc(CN3CCCCC3)nn2)cc1 | 96.7% (inactive)

----------
- System: SNB-19 CNS
- PROCEDURE_TEXT: NCI-60 one-dose screen, 48 h (100 = growth as untreated, 0 = no growth, -100 = all killed)
- MEASUREMENT_SETUP: 10 µM unless noted
The panel holds about 83,000 compounds, 20% with a hit somewhere; the sample as a whole holds those more often.
Cut-off 90% on growth, inclusive. At or above means label 1; below means label 0.

COMPOUND | CLASS_LABEL
COC(=O)c1[nH]nc2c1C1(C(=O)N(C)c3ccccc31)C(C#N)=C(N)O2 (stereo not drawn) | label 1
NS(=O)(=O)c1ccc(-n2cc(-c3cccc(NC(=O)c4ccc(N5CCOCC5)c(C(F)(F)F)c4)c3)nn2)cc1 | label 0
O=C(CSc1nc2ccccc2c(=O)n1-c1ccccc1)Nc1cccc(C(=O)/C=C/c2ccccc2Cl)c1 | label 1
CCOC(=O)c1c(Nc2ccccc2)nn2c(-c3ccccc3)ccnc12 | label 1
COc1cc(OC)cc(C(=O)Nc2cccc(C#Cc3cccc4[nH]nc(N)c34)c2)c1 | label 0
C=C(C=O)[C@@H]1CC[C@]2(COC(C)=O)CC[C@]3(C)C(CC[C@@H]4[C@@]5(C)CC[C@H](OC(C)=O)C(C)(C)[C@@H]5CC[C@]43C)[C@@H]12 (stereo partly drawn) | label 0
CN(C)CCNC(=O)c1ccc(-c2nc3ccc4[nH]ncc4c3c3c2CCC3)cc1 | label 0
O=C(CNc1nc(-c2cccc([N+](=O)[O-])c2)cs1)Nc1cccc(Cl)c1 | label 1
CCNC(=O)N1CCc2cc(OC)c(OCCc3ccc(OC)c(N)c3)cc2C1c1cc(C)c(C)cc1C (stereo not drawn) | label 0
Cc1c(F)cc(C(N)=O)cc1NCC(=O)Nc1ccc([N+](=O)[O-])cc1 | label 1
CC/C(=C/c1cc(OC)ccc1O)c1ccc2cc(OC)ccc2[o+]1 | label 0
COc1ccc2c(c1)c(-c1cc(N)n3nc(-c4cn(C)c5ccc(OC)cc45)cc3n1)cn2C | label 1
CS(=O)(=O)c1ccc(-n2cc(/C=N/O)c(-c3ccccc3)n2)cc1 | label 0
CCOC(=O)c1c(N)c(C#N)cn1-c1cc(OC)c(OC)c(OC)c1 | label 1
Cc1ccc(NC(=O)N[C@@H](Cc2cc(F)cc(F)c2)C(=O)NC2C(=O)N3C[C@H](O)C[C@H]3C(=O)N3CCCC[C@H]3C(=O)N[C@@H](CO)C(=O)N3C[C@H](C)C[C@H]3C(=O)O[C@H]2C)c(F)c1 (stereo partly drawn) | label 0
Oc1cccc2ccc(-c3nnc(SCc4ccc(O)c5ncccc45)o3)nc12 | label 0
COc1cc(OC)cc(C(=O)Nc2sc3c(c2C(N)=O)CCC(=O)C3)c1 | label 0
COc1ccc(CCOc2cc3c(cc2OC)CCN(C(=O)NCc2cocn2)C3c2ccc(C)cc2C)cc1 (stereo not drawn) | label 0
